TARGET UNDER TEST: T1, Cyno CD33 full length, expressed on HEK293F cells (cynomolgus monkey)
T1 construct: HEK293F cells transduced with lentivirus containing full length cyno CD33 (Genbank XP_005590138.1); also called cyCD33
METHOD DESCRIPTION: flow cytometry, HEK293F cells expressing cyno CD33
Hi there, I'd appreciate the recorded MFI at 0.6 nM mAb for every entry that follows.
# output: bare number, implied unit MFI

# MFI at 0.6 nM mAb of C33B46 (antibody, IgG1, V domains shown, huIgG1 F405L; also called C33F51; C33H108/C33L74) VH: QVQLVQSGSELKKPGASVKVSCKASGYTFSTYAMNWVRQAPGQGLEWMGWINTNTGNPTYAQGFTGRFVFSLDTSVSTAYLQISSLKAEDTAVYYCARDRDRGTDYWGQGTLVTVSS VL: QSALTQPASVSGSPGQSITISCTGTSSDVGDDNYVSWYQQHPGKAPKLMIYDVSNRPSGVSNRFSGSKSGNTASLTISGLQSEDEADYYCSSYSSSTTLEVFGGGTKLTVL = 49700

# MFI at 0.6 nM mAb of C33B89 (antibody, IgG1, V domains shown, huIgG1 F405L; also called C33F94; C33H90/C33L51) VH: QVQLQQSGPGLVKPSQTLSLTCAISGDSVSSNSAAWNWIRQSPSRGLEWLGRTYYRSKWYNDYALSVQSRITINPDTSKNQFSLQLNSVTPEDTAVYYCAREVAVAASFDYWGQGTLVTVSS VL: SYVLTQPPSVSVAPGQTARITCGGNNIGSKSVHWSQQKPGQAPVLVVYDDSDRPSGIPERFSGSNSGNTATLTISRVEAGDEADYYCQVWDSNSDHVVFGGGTKLTVL = 23300

# MFI at 0.6 nM mAb of C33B63 (antibody, IgG1, V domains shown, huIgG1 F405L; also called C33F68; C33H51/C33L34) VH: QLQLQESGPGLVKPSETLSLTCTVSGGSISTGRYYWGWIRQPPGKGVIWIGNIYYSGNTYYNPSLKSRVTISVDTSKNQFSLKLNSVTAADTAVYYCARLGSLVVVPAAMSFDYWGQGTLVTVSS VL: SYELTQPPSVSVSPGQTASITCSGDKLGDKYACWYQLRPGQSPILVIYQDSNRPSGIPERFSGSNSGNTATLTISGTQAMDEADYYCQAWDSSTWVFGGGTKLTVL = 2880
